Tested on: PC-3 prostate
Experiment: NCI-60 one-dose screen, 48 h
Settings: 10 µM
The panel holds about 83,000 compounds, 20% with a hit somewhere; the sample as a whole holds those more often. Activity calls are given as the source filed them. How the source made its calls: active means growth percent below 10; inactive means the rest.
Classes used: T = active, F = inactive

Compound	Classification
CCOC(=O)c1c(CSc2ccccc2)n(C)c2cc(CN(C)C)c(O)c(CN(C)C)c12	F
O=S(=O)(Nc1ncccn1)c1ccc(-n2c(-c3ccccc3)nc(-c3ccccc3)c2-c2ccccc2)cc1	F
Cc1ccc(/C(N)=N/c2sc(-c3ccccc3)nc2-c2ccccc2)cc1	F
Cc1ccn2c(C(=O)c3ccccc3)cc(-c3cc(-c4ccc(N(C)C)cc4)c(C#N)c(N)n3)c2c1	F
O=C(c1ccc(Cl)cc1)C1[C@H](c2ccccc2Br)[C@@H](c2ccccc2)NC12C(=O)Nc1ccccc12 (stereo not given in full)	F
O=C1c2ccccc2C(=O)c2c1c(C(=O)c1ccc(Cl)cc1)n1c2ccc2c3ccccc3ccc21	F
CC(=O)c1ccc(NC(=O)NCn2c(=O)[nH]c3ccccc3c2=O)cc1	F
CC(=O)c1ccc(Nc2nc(SCCC(C)C)nc(-c3ccc(F)cc3)c2C#N)cc1	F
COc1cccc(C(N)=Nc2ccc(OCCCCCCn3cncn3)cc2)c1	F
O=C1Nc2ccc(Cl)cc2/C1=C/c1ccc(OCc2ccccn2)cc1	F
CC1=C(C(=O)OC(C)C)C(c2ccc(O)cc2)NC(=S)N1 (stereo not given)	F
CCCn1c(O)c(N=Nc2nc(-c3cc4ccccc4oc3=O)cs2)c2cc(Br)ccc21	F
O=C(/C=C/Nc1ccc(F)cc1F)c1ccc2c(c1)Nc1ccccc1S2	F
CCCCCCCCCCCCCCCCCCCC(=O)NCCc1c[nH]c2ccc(O)cc12	F
C=CC(=O)Nc1ccc(C(=O)/C=C/c2ccc(N(C)CCF)cc2)c(O)c1	T
CN1CCN(c2ccc(Nc3nc(N4CCN(S(=O)(=O)c5ccc(F)cc5)CC4)c4sccc4n3)cc2)CC1	T
CN(C(=O)c1ccc(C(C)(C)C)cc1)c1sc2c(c1C#N)CCC(=O)C2	T
Nc1nc(Nc2ccc(Cl)cc2)nn1Cc1cccc(Br)c1	F
CC(=O)NCC1=C(C)C=C2C(=O)[C@](C)(O)C3(CC3)C(C)=C21	T
O=S(=O)(Nc1ncccn1)c1ccc(-n2c(-c3ccc(Br)cc3)nc(-c3ccccc3)c2-c2ccccc2)cc1	F

----------
Tested on: SW-620 colon
Experiment: NCI-60 one-dose screen, 48 h
Conditions: 10 µM
Protocol: Growth inhibition of the SW-620 human tumor cell line is measured as a screen for anti-cancer activity. Cells are grown in 96 well plates and exposed to the test compound for 48 hours. Compounds are tested at a single concentration, which is 10^-5 M for most compounds. The reported endpoint is percent growth (GI% or GIPRCNT), where numbers from 0 - 100% represent growth inhibition, and numbers from -100% - 0 represent cell death. For example, a value of 40 represents 60% growth inhibition. […]
Compounds without any hit were thinned out: in the full panel of roughly 83,000, 20% have a hit. Calls of active or inactive are those of the source. Rule for the calls: active = growth percent below 10; inactive = the rest.
Classes used: class 1 for active, class 0 for inactive

Compound	Assayed target	Classification
CC1(C)CC[C@]2(C(=O)O)CC[C@]3(C)C(=CC[C@@H]4[C@@]5(C)C/C(=C/c6ccncc6)[C@H](O)C(C)(C)[C@@H]5CC[C@]43C)[C@@H]2C1	SW-620 colon	class 0
Cc1ccc2nc(-c3ccc(-c4nnc(SCC(=O)Nc5ccc(Cl)cc5)o4)cc3)[nH]c2c1	SW-620 colon	class 1
CCCCCc1ccc(S(=O)(=O)N(C(C)=O)c2cc(-c3csc(N(C)C(C)=O)n3)ccc2N2CCN(C)CC2)cc1	SW-620 colon	class 1
COC(=O)C(Cc1ccc(O)c(O)c1)NC(=O)C(CSC/C=C(\C)CCCC(C)CCCC(C)CCCC(C)C)NC(C)=O (stereo not given)	SW-620 colon	class 0
O=C(Nc1ccc(OCc2ccccc2)cc1)Nc1ccc(Cl)c(C(F)(F)F)c1	SW-620 colon	class 0
O=C1Nc2cc(Cl)ccc2/C1=C/c1cccc(OCc2ccccc2)c1	SW-620 colon	class 1
CN1C/C(=C\c2ccc(O)cc2O)c2[o+]c3cc(O)ccc3cc2C1	SW-620 colon	class 0
O=C1NC(=NC2CCCCCC2)N/C1=C\c1ccc2ncoc2c1	SW-620 colon	class 0
CCOC(=O)C1=C(N)N(c2ccc(C)cc2)C2=C(C(=O)CC(C)(C)C2)C1c1ccccc1OC (stereo not given)	SW-620 colon	class 0
COC(=O)c1c(C(=O)OC)c2n(c1C)[C@@H]([C@@H](C)[C@H]1CC[C@H]3[C@@H]4CCC5=CC(=O)CC[C@]5(C)[C@H]4CC[C@]13C)SC2	SW-620 colon	class 0
CC(=O)Nc1ccc(-c2cn(-c3cccc(C(=O)Nc4cccc(OC(F)(F)F)c4)c3)nn2)cn1	SW-620 colon	class 0
O=C1Nc2cc(-c3ccc(NC(=O)c4cccs4)cc3)ccc2/C1=C/c1ccc[nH]1	SW-620 colon	class 0
O/N=C(\CSc1nnc(-c2c[nH]c3ccccc23)n1-c1ccccc1)c1ccc(Cl)cc1	SW-620 colon	class 1
O=c1oc2ccc(-c3ccc(F)cc3F)cc2c(=O)n1-c1ccc(Cl)c(C(F)(F)F)c1	SW-620 colon	class 0
CC(=O)Nc1ccc(-c2cn(-c3cccc(C(=O)Nc4ccc(Cl)c(C(F)(F)F)c4)c3)nn2)cn1	SW-620 colon	class 1
Cc1ccc2nc3c(nc2c1)c1cc(I)ccc1n3CCN(C)C	SW-620 colon	class 0
CCOC(=O)C1=C(N)N(c2ccc(Cl)cc2)C2=C(C(=O)CC(C)(C)C2)C1c1ccc(N2CCOCC2)cc1 (stereo not given)	SW-620 colon	class 0
N#C/C(=C\c1ccc(N(c2ccccc2)c2ccccc2)cc1)C(N)=O	SW-620 colon	class 0
O=c1[nH]c2ccccc2cc1CSc1ccc(Nc2nccc(-c3ccc(Cl)cc3)n2)cc1	SW-620 colon	class 1
O=C(CNc1nc(-c2ccccc2)cs1)Nc1cccc(Cl)c1	SW-620 colon	class 0
COc1ccc(C(=O)Nc2sc3c(c2C#N)CCC(=O)C3)cc1C(F)(F)F	SW-620 colon	class 1
Cc1ccc(CSc2nc(Cl)c(C#N)c(-c3ccc(F)cc3)n2)cc1	SW-620 colon	class 0
O=C(Nc1ccc(OCC(=O)c2ccccc2)cc1)Nc1ccc(Cl)c(C(F)(F)F)c1	SW-620 colon	class 0
COc1cccc(COc2ccc(/C=C3\Oc4cc(O)ccc4C3=O)cc2)c1	SW-620 colon	class 0
Cc1noc2c(Cc3ccccc3)nn(CC(=O)N/N=C/c3ccc(Cl)cc3)c(=O)c12	SW-620 colon	class 0
COc1ccc(-c2cc(C(=O)N=Nc3c(O)[nH]c4ccc(F)cc34)c3ccccc3n2)cc1	SW-620 colon	class 0
COc1ccc2[nH]cc(/C=N/Nc3cccc(Cl)n3)c2c1	SW-620 colon	class 0
O=C(Nc1ccc(I)cc1)Nc1nc2ccc([N+](=O)[O-])cc2s1	SW-620 colon	class 1
COc1ccc2cc([C@H](C)C(=O)NCc3ccccc3)ccc2c1	SW-620 colon	class 0
O=C(NC(=S)N1CCN(c2ncnc3c2cnn3-c2ccccc2)CC1)c1ccc(Cl)cc1	SW-620 colon	class 0
N#Cc1c(Cl)nc(SCc2ccc(F)cc2)nc1-c1ccc(F)cc1	SW-620 colon	class 0
CN(C(=O)c1ccc(C(C)(C)C)cc1)c1sc2c(c1C#N)CCC(=O)C2	SW-620 colon	class 1
CC1(C)CC[C@]2(C(=O)Nc3ccccc3)CC[C@]3(C)C(=CC[C@@H]4[C@@]5(C)CC[C@H](N)C(C)(C)[C@@H]5CC[C@]43C)[C@H]2C1	SW-620 colon	class 1
Cc1ccc(-c2nc3ccc(C(=O)N=Nc4c(O)[nH]c5ccc([N+](=O)[O-])cc45)cc3[nH]2)cc1	SW-620 colon	class 0
COc1cc(/C=C/C(=O)c2ccc(S(=O)(=O)NCCNc3nc(Nc4ccc(F)cc4)nc(N(C)C)n3)cc2)cc(OC)c1OC	SW-620 colon	class 1

----------
Test system: T-47D breast
Test: NCI-60 one-dose screen, 48 h
Conditions: 10 µM
Protocol: Growth inhibition of the T-47D human tumor cell line is measured as a screen for anti-cancer activity. Cells are grown in 96 well plates and exposed to the test compound for 48 hours. Compounds are tested at a single concentration, which is 10^-5 M for most compounds. The reported endpoint is percent growth (GI% or GIPRCNT), where numbers from 0 - 100% represent growth inhibition, and numbers from -100% - 0 represent cell death. For example, a value of 40 represents 60% growth inhibition. […]
About 83,000 compounds went through this panel and 20% of them were active in at least one assay; those are over-represented in the sample as a whole. Active and inactive are the calls of the source. The calls were made as follows: active = growth percent below 10; inactive = the rest.
Classes used: label 1 = active, label 0 = inactive

Compound	Classification
COc1ccc(CCN2C(=O)/C(=C/c3csc(C#N)n3)SC2=S)cc1OC	label 1
Cn1cc(-c2cc(N)n3nc(-c4c[nH]c5ccc(Br)cc45)cc3n2)c2cc(Br)cnc21	label 1
COc1ccc([C@H]2C(C(=O)c3ccc(Cl)cc3)C3(N[C@@H]2c2ccccc2)C(=O)Nc2ccc(Br)cc23)cc1 (some centres undefined)	label 0
C/C(=C\c1ccc(O)cc1O)c1ccc2ccc(O)cc2[o+]1	label 0
O=c1c2ccccc2nc(COc2ccccc2)n1/N=C/c1ccc(N2CCOCC2)cc1	label 0
COc1cccc(-c2nn(-c3ccccc3)cc2-c2ccnc(NCCCNC(=O)Nc3ccc(F)cc3)c2)c1	label 1
COc1ccc(-c2cc(C(=O)N=Nc3c(O)[nH]c4ccc(F)cc34)c3ccccc3n2)cc1	label 0
CC1(c2ccccc2)NC(=O)N(CC(=O)Nc2ccc(C(=O)/C=C/c3ccccc3)cc2)C1=O (centres undefined)	label 0
CN(C)c1ccc(/C=C/c2nc3ccccc3c(=O)n2CC(=O)Nc2ccccc2)cc1	label 0
